Tested on: PPARg DBDmut:RXRa IVT, anti-PPARg (DBD mutation: PPARg1 K132A/R137A, NR concentration 270 nM, RXRa partner concentration 90 nM)
Assay Info: PBM binding z-score (relative to random genomic background probes); higher = stronger binding; sequences stand for … in GC…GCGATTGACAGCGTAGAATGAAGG
Assay Endpoint: PBM binding z-score
Give bare numbers.

> print(dat)
                       chain.sequence       assay.endpoint  measured.result
1  TAGCCTAGGTCATGGGCCAGTATCCCACGCGAAC  PBM binding z-score            0.396
2  TCTAGTTGATCACGGAGGTCACACACGACGGGTA  PBM binding z-score            0.727
3  CCTTACGGGGCAAGGTTATAGCACGGGTGGTACG  PBM binding z-score           -0.313
4  CTCGCAAGGTCGGTTGAGGTGAGTATACGGATAA  PBM binding z-score            -0.57

Below are 3 sequences. Give each one its PBM binding z-score.
1. CGAACTAGGTCATCCAGGACAATGAATACATTGA
2. TCTTGTAGATCAATAGTGGTTAAGAAAGTGCGCT
3. CTCGAAAGGTCGTGCTCAGGTTAGTATACCAAAC

OUT:
1. 3.32
2. 0.28
3. 0.0664

Please supply PBM binding z-score for each of the following items, keeping them in order.
1. TCATATAGGTAAAGGTGAAAGGCGAACGATATGA
2. ACTCGGAGGACAAAGGTCAAAGCTACGCCAGTGA
3. TCTGCTAGGTCAGTTGGTCAGCCAACGAGCTGCC

OUT:
1.46
-0.163
2.07

List PBM binding z-score for every entry below, keeping the order given.
1. CGAACGAGGGCATGAGTTGATCGCAAATGCCGAT
2. CGAACTCGGTCAAGGACAGTGAATCTCCGCACGC
3. TAGCCTAGGTCATGGGGCAGTATACCACGCGAAC
4. TCTTGTAGATCAATAGAGGTTAAGTAAGTGCGCT
5. TCGGCTAGGTCAGTTGGTCAGCTAACGAGCTGCC
6. CCTTACGGGTCAAGGTTTTAGCACGGGTGGTACG

OUT:
1: 0.532; 2: -0.0732; 3: 0.479; 4: 0.705; 5: -0.718; 6: 0.173

* * *

For each of the sequences below, state its PBM binding z-score.
Tested on: RXRa DBDmut IVT, anti-RXR (DBD mutation: RXRa K156A/R161A, NR concentration 90 nM)
Assay Info: PBM binding z-score (relative to random genomic background probes); higher = stronger binding; sequences stand for … in GC…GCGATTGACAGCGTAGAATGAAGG

Some solved entries appear below for comparison.
> print(dat)
                       chain.sequence                             system.tested       assay.endpoint  measured.result
1  CAAACTAAGTCACCGGAAGGTCAAAGTCCGCATG  RXRa DBDmut IVT, anti-RXR (DBD mutation: RXRa K156A/R161A, NR concentration 90 nM)  PBM binding z-score             1.01
2  ACTTACGGGTCAACGAGGTTACAGCACGCGTATA  RXRa DBDmut IVT, anti-RXR (DBD mutation: RXRa K156A/R161A, NR concentration 90 nM)  PBM binding z-score             2.37

# map each sequence to its PBM binding z-score
1. ACTAGCAGGCCAAGTTTGGGTCGCTCAAACAAAG
2. GCGGACAGGTGAAACGCAGGTAACTCAGGGTGGC
3. TAGCCTAGGTCCTGCGGGCCAGTATAGTGTCGGC
4. CATACTGGGCCAAAAAGGTCATTGATGCCGATAA
5. ATACCAAGGTGAGCGTGAGGTCGTTGATACTAAC

OUT:
1. -0.368
2. -0.341
3. -1.46
4. 1.25
5. 0.221
